Measured values drawn from patent US7049398B1 for this set.

- system: hMC4-R (Homo sapiens, UniProt P32245)
- Construct: expressed in transfected cells; host or cells: 293 cells
- Sequence (P32245 whole entry): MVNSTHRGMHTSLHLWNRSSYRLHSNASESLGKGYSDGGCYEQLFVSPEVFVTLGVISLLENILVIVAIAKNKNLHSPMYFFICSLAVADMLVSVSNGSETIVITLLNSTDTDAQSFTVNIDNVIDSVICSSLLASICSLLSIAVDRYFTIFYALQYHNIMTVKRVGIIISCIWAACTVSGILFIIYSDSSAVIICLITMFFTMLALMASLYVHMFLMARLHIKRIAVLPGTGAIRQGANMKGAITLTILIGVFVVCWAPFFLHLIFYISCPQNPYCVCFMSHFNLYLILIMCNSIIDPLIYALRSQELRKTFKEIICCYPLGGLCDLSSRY
- experiment: Competitive inhibition binding assay, 125I-NDP-alpha-MSH, hMC4-R membranes
- setup conditions: Conc. cut off 1 μM test peptide; 0.4 nM 125I-NDP-alpha-MSH
Primed or numbered codes have the meaning given here. [ ]: non-standard residue; d: D form. Nle = CCCC[C@H](N)C(=O)O; Bz′ = not defined here
endpoint name: % Inhibition MC4-R (%)
Return type: number; implicit unit %.

% Inhibition MC4-R measured on PL-1512 (Ac-RFFNACF-NH2; also: ReO[V] metal complex) = 24

% Inhibition MC4-R measured on PL-1507 (Ac-RFFNCF-NH2; also: ReO[V] metal complex) = 22

% Inhibition MC4-R measured on PL-1510 (Ac-RFFCNAF-NH2; also: ReO[V] metal complex) = 31

% Inhibition MC4-R measured on PL-1511 (Ac-RFFNCAF-NH2; also: ReO[V] metal complex) = 26

% Inhibition MC4-R measured on PL-1926 ({Bz′}-Arg-Trp-Cys-NH2; also: ReO[V] complex) = 7

% Inhibition MC4-R measured on PL-1514 (Ac-RFFNFC-NH2; also: ReO[V] metal complex) = 30

% Inhibition MC4-R measured on PL-1513 (Ac-RFFNFC-NH2; also: ReO[V] metal complex) = 18

% Inhibition MC4-R measured on PL-1509 (Ac-RFCFNAF-NH2; also: ReO[V] metal complex) = 30

% Inhibition MC4-R measured on PL-1842: metallopeptide of Table 1 (Ac-[Nle]AHRFWC-NH2; also: ReO[V] complex) = 2

% Inhibition MC4-R measured on PL-1450 (Ac-[Nle]AHFRCW-NH2; also: ReO[V] metal complex) = 66

###

- system: MC1-R (B-16 mouse melanoma cells) (Mus musculus, UniProt Q01727)
- Construct: B-16 mouse melanoma cells (containing MC1-R); endogenous in cells; host or cells: B-16 mouse melanoma cells
- Sequence (Q01727 whole entry): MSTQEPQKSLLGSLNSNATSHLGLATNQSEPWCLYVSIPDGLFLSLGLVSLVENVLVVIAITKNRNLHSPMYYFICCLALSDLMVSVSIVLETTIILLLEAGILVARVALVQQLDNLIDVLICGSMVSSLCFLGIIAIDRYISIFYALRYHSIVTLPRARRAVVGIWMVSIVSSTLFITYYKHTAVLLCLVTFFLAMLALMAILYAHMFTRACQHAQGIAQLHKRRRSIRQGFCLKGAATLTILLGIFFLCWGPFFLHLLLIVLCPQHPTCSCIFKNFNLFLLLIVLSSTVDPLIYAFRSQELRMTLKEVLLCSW
- experiment: Competitive inhibition binding assay, 125I-NDP-alpha-MSH, B-16 mouse melanoma cell membranes
- setup conditions: Conc. cut off 1 μM test peptide; 0.4 nM 125I-NDP-alpha-MSH
Primed or numbered codes have the meaning given here. [ ]: non-standard residue; d: D form. Nle = CCCC[C@H](N)C(=O)O; Bz′ = not defined here
endpoint name: % Inhibition MC1-R (B-16) (%)
Return type: number; implicit unit %.

% Inhibition MC1-R (B-16) measured on PL-1513 (Ac-RFFNFC-NH2; also: ReO[V] metal complex) = 23

% Inhibition MC1-R (B-16) measured on PL-1842: metallopeptide of Table 1 (Ac-[Nle]AHRFWC-NH2; also: ReO[V] complex) = 27

% Inhibition MC1-R (B-16) measured on PL-1509 (Ac-RFCFNAF-NH2; also: ReO[V] metal complex) = 19

% Inhibition MC1-R (B-16) measured on PL-1507 (Ac-RFFNCF-NH2; also: ReO[V] metal complex) = 20

% Inhibition MC1-R (B-16) measured on PL-1450 (Ac-[Nle]AHFRCW-NH2; also: ReO[V] metal complex) = 73

% Inhibition MC1-R (B-16) measured on PL-1926 ({Bz′}-Arg-Trp-Cys-NH2; also: ReO[V] complex) = 25

% Inhibition MC1-R (B-16) measured on PL-1510 (Ac-RFFCNAF-NH2; also: ReO[V] metal complex) = 21

% Inhibition MC1-R (B-16) measured on PL-1512 (Ac-RFFNACF-NH2; also: ReO[V] metal complex) = 20

% Inhibition MC1-R (B-16) measured on PL-1511 (Ac-RFFNCAF-NH2; also: ReO[V] metal complex) = 21

% Inhibition MC1-R (B-16) measured on PL-1514 (Ac-RFFNFC-NH2; also: ReO[V] metal complex) = 28
